target: VEGF as named in the paper; reagent listed as Human VEGFR2 / KDR Protein, His Tag, Acrobiosystems KDR-H5227 (human); assay: BLI; conditions: kon 9.164e1 1/Ms; koff 4.362e-7 1/s; BLI (Octet R4, anti-penta-His HIS1K sensors): protein loaded in phosphate buffer pH 7.4 (PlGF 2.5 ug/mL, VEGF 10 ug/mL); aptamers 0-20 uM in 1X Sartorius …
QUANTITY_MEASURED: pKd
# reply with the number alone; pKd is -log10 of concentration in mol/L

[ask] Note pKd for the sequence shown: GAAAGGCGA [VEGF-Apt3]
[reply] 8.17

###

Below, each entry is listed alongside its reported pKd.
molecular target: VEGF as named in the paper; reagent listed as Human VEGFR2 / KDR Protein, His Tag, Acrobiosystems KDR-H5227 (human) (UniProt P35968); test: BLI; conditions: BLI (Octet R4, anti-penta-His HIS1K sensors): protein loaded in phosphate buffer pH 7.4 (PlGF 2.5 ug/mL, VEGF 10 ug/mL); aptamers 0-20 uM in 1X Sartorius …
Sequence (P35968 20-764): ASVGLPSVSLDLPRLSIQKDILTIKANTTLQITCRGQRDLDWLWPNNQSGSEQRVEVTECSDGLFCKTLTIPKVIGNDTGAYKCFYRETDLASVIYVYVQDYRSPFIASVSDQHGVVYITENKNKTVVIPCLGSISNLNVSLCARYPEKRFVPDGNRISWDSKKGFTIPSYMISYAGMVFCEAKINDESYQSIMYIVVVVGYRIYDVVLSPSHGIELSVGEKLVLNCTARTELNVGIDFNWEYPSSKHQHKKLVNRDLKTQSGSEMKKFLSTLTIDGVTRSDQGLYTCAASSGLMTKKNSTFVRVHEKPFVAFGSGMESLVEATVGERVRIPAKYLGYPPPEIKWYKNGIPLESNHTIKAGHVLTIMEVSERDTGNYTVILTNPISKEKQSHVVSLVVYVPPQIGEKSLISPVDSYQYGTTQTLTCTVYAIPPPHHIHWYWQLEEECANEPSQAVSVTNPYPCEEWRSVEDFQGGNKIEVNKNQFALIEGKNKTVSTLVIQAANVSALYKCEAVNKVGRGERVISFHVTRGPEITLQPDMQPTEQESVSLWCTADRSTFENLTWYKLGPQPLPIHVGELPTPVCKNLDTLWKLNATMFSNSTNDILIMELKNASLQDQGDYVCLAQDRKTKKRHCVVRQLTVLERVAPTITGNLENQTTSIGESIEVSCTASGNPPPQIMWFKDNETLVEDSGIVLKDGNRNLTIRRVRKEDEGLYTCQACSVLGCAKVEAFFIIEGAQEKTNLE
Here pKd is given on a logarithmic scale as minus log10 of the concentration in mol/L.

> print(dat)
          sequence.input  recorded.value
1  CGAAGGGAA [VEGF-Apt1]            3.49

Okay, next one:
[ask] For the sequence CGAAAACAC [VEGF-Apt2] , report pKd.
[reply] 9.33
